Details: 20.0 µM
observed property: relative solubility at 20 uM
Give the figure only, with no unit attached.

The cases that follow already have their relative solubility at 20 uM on record.
compound	relative solubility at 20 uM
NS(=O)(=O)c1ccc(N2CCC(c3nc4ccccc4s3)CC2)cc1	0.76
Cc1cc(C)cc(NC(=O)Cn2cncc2C)c1	1
O=C(Nc1cccnc1)Nc1ccc(Cl)s1	0.99
CC(=O)N1CCN(Cc2cn(-c3cccc(S(N)(=O)=O)c3)nn2)CC1	0.95
C=CC(=O)N(c1ccc(C(C)(C)C)cc1)C(C(=O)NC)c1cccnc1 (centres undefined)	1.01

Q: Looking for the measured relative solubility at 20 uM of C=CC(=O)N(c1ccc(N(C)C)c(C)c1)C(C(=O)Nc1ccc(Cl)cc1)c1cccnc1 (centres undefined) , can you help?
Ans: 0.88

Q: Also need C=CC(=O)N(c1ccc(C(C)(C)C)cc1)C(C(=O)NCc1cccnc1)c1cccnc1 (centres undefined) , thanks.
Ans: 1

Q: Also need O=C(CCl)N1CCN(Cc2cc(O)ccc2O)CC1 , thanks.
Ans: 0.99

Q: Also need C=CC(=O)N(c1ccc2cc[nH]c2c1)C(C(=O)NC(C)(C)C)c1cccnc1 (centres undefined) , thanks.
Ans: 0.84

Q: Also need Cc1cnn(-c2ccncc2NC(=O)Cn2cc(C)c3ccccc32)c1 , thanks.
Ans: 0.59

Q: Also need Cc1ccncc1NC(=O)CC(O)C1CC1 (centres undefined) , thanks.
Ans: 1

Q: Also need O=C(C1CCN(S(=O)(=O)c2ccccc2)CC1)N1CCOCC1 , thanks.
Ans: 1
